Biological target: Alpha-2C adrenergic receptor (Homo sapiens, UniProt P18825)
Sequence (P18825 whole entry): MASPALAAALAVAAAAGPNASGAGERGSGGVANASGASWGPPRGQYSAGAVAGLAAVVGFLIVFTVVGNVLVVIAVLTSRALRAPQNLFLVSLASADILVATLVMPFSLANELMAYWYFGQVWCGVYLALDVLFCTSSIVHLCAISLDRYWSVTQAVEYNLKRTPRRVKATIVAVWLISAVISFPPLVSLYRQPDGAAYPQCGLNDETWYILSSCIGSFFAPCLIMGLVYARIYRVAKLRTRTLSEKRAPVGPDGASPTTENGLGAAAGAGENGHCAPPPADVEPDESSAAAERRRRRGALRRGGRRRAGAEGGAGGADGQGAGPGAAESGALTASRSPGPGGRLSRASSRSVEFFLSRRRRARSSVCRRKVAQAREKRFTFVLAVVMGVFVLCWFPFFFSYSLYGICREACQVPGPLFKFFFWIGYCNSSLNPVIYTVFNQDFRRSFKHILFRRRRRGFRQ
Assay: In vitro binding affinity measured by displacement of [3H]rauwolscine from alpha-2c adrenergic receptor expressed in CHO cells in presence of phentolamine
pKi: −log10 of the molar value.
reportedEndpoint: pKi

COC(=O)CNC(=O)CNC(=O)[C@@H]1C2C[C@H]3c4[nH]c5ccccc5c4CCN3C[C@@H]2CC[C@@H]1O (some centres undefined) | 8.28

[I] COC(=O)CNC(=O)[C@@H]1C2C[C@H]3c4[nH]c5ccccc5c4CCN3C[C@@H]2CC[C@@H]1O (some centres undefined)
[II] O=C(CCCNC(=O)[C@@H]1C2C[C@H]3c4[nH]c5ccccc5c4CCN3C[C@@H]2CC[C@@H]1O)OCc1ccccc1 (some centres undefined)
Please tell me which of the two, I or II , has the higher reported pKi value. Refer to your chosen item by its label in the answer. II

[a] CC(C)(C)OC(=O)NCCCNC(=O)[C@@H]1C2C[C@H]3c4[nH]c5ccccc5c4CCN3C[C@@H]2CC[C@@H]1O (some centres undefined)
[b] O=C(O)[C@@H]1C2C[C@H]3c4[nH]c5ccccc5c4CCN3C[C@@H]2CC[C@@H]1O (some centres undefined)
Please tell me which of the two, a or b , has the higher reported pKi value. Refer to your chosen item by its label in the answer. a

[a] O=C(O)CCCNC(=O)[C@@H]1C2C[C@H]3c4[nH]c5ccccc5c4CCN3C[C@@H]2CC[C@@H]1O (some centres undefined)
[b] O=C(NCCCNC(=O)[C@@H]1C2C[C@H]3c4[nH]c5ccccc5c4CCN3C[C@@H]2CC[C@@H]1O)OCc1ccccc1 (some centres undefined)
Please tell me which of the two, a or b , has the higher reported pKi value. Refer to your chosen item by its label in the answer. b

[P] NCCCNC(=O)[C@@H]1C2C[C@H]3c4[nH]c5ccccc5c4CCN3C[C@@H]2CC[C@@H]1O (some centres undefined)
[Q] O=C(NCCCNC(=O)[C@@H]1C2C[C@H]3c4[nH]c5ccccc5c4CCN3C[C@@H]2CC[C@@H]1O)[C@H]1[C@@H]2C[C@@H]3c4[nH]c5ccccc5c4CCN3C[C@H]2CC[C@H]1O (some centres undefined)
Field: lower recorded pKi (choose P or Q ) Refer to your chosen item by its label in the answer. P

Sourced from ChEMBL document CHEMBL1145270
